Data credit: patent US11324720B2

- testedOn: Pol δ (Homo sapiens)
- Sequence (P28340 whole entry): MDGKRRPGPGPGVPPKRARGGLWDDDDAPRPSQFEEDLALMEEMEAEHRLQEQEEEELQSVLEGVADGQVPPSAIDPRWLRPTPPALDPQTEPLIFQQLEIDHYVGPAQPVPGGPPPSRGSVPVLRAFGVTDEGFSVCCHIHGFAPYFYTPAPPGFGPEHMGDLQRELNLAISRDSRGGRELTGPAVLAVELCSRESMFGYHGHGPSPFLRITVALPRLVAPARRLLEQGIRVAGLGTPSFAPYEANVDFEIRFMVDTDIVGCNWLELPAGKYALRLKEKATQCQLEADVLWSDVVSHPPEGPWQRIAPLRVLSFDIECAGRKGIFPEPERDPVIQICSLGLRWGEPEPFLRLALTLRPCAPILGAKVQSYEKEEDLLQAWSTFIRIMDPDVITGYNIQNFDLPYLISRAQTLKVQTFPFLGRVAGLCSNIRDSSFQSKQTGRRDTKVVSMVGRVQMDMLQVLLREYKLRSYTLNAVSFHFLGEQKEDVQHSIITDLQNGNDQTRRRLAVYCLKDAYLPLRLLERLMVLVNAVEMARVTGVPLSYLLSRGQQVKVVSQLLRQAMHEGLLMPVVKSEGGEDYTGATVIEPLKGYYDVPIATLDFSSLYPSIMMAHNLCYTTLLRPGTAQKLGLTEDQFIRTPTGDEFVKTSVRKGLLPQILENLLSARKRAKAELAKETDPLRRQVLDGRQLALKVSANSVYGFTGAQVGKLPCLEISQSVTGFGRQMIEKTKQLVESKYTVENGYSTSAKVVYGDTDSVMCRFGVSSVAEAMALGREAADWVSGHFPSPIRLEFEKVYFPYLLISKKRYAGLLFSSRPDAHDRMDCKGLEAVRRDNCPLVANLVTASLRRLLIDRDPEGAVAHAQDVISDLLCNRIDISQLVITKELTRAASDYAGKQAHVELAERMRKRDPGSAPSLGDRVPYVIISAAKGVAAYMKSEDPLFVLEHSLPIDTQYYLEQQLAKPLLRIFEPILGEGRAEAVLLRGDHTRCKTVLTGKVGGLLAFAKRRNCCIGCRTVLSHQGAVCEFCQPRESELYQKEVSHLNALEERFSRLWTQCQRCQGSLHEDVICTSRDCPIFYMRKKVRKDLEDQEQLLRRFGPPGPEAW
- Sequence (P49005 whole entry partner): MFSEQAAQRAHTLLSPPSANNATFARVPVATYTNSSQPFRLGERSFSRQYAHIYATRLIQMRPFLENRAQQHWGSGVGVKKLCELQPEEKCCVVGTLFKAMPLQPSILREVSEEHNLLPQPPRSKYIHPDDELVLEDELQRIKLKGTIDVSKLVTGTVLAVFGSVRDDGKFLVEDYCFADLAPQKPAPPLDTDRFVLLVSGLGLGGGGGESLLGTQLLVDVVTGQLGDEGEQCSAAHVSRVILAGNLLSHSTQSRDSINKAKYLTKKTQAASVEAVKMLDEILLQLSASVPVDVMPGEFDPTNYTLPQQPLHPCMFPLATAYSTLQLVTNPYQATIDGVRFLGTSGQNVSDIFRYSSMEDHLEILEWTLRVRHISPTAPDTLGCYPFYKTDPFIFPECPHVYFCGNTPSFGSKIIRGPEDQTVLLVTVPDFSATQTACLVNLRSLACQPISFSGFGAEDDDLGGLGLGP
- Sequence (Q15054 whole entry partner): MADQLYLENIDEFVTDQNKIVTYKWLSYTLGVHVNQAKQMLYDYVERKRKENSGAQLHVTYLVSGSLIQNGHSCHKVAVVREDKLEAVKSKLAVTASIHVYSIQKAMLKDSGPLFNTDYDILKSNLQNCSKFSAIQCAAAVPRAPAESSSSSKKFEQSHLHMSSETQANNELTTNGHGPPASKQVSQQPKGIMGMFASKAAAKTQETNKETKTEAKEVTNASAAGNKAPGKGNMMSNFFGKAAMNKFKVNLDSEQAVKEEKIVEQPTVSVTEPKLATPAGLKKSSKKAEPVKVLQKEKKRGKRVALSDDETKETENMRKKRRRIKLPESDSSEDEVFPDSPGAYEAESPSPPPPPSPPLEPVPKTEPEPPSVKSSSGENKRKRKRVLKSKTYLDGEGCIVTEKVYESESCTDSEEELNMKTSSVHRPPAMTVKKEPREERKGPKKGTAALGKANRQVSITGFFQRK
- Sequence (P12004 whole entry partner): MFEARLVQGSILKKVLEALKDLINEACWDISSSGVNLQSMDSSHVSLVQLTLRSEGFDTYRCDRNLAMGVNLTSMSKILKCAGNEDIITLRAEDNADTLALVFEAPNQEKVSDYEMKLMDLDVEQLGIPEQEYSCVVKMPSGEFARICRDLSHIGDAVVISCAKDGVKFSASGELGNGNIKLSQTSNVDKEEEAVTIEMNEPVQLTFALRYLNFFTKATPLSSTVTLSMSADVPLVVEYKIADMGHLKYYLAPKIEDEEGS
measurementLabel: Ki (µM)
Lab book: enter the figure in µM, no units written.

-- ask Field request: Ki | item: "COC(=O)c1cc(-c2ccccc2)sc1NC(=S)NNC(=O)CCc1ccc(O)c(O)c1"
-- reply 4.3
